System: U-2 OS
Method notes: cell painting activity score (Mahalanobis distance from DMSO wells); higher = stronger morphological phenotype
Assay conditions: 1.25 µM; 24 h
Rule: cell painting activity score of 5 or more gives satisfied; anything lower gives not satisfied.

Q. Item CO[C@H]1C[C@@H]2CC[C@@H](C)[C@@](O)(O2)C(=O)C(=O)N2CCCC[C@H]2C(=O)O[C@H]([C@H](C)C[C@@H]2CC[C@@H](O)[C@H](OC)C2)CC(=O)[C@H](C)/C=C(\C)[C@@H](O)[C@@H](OC)C(=O)[C@H](C)C[C@H](C)/C=C/C=C/C=C/1C with cell painting activity score of 5 or above?
A. satisfied

Q. Item COc1ccc2c(c[n+](C)c3c4cc5c(cc4ccc23)OCO5)c1OC with cell painting activity score of 5 or above?
A. not satisfied

Q. Item CC1=CC(=O)c2ccccc2C1=O with cell painting activity score of 5 or above?
A. not satisfied

Q. Item COc1cc(/C=C/C(=O)CC(=O)/C=C/c2ccc(O)c(OC)c2)ccc1O with cell painting activity score of 5 or above?
A. not satisfied

Q. Item COc1cc(OC)c2ccccc2c1C=C1C(=O)NC(=S)NC1=O with cell painting activity score of 5 or above?
A. satisfied

###

Tested on: U-2 OS
Method notes: relative cell count vs DMSO (cell painting) (fraction of DMSO control); higher = more cells remaining (less cytotoxic)
Assay conditions: 1.25 µM; 24 h
Rule: relative cell count of 1 or more gives 1 (yes); anything lower gives 0 (no).

Q. Item Cc1ccc(C(=O)N(CCCN)[C@@H](c2oc3cc(Cl)ccc3c(=O)c2Cc2ccccc2)C(C)C)cc1.Cl with relative cell count of 1 or above?
A. 0 (no)

Q. Item O=C1Cc2c([nH]c3ccc(Br)cc23)-c2ccccc2N1 with relative cell count of 1 or above?
A. 0 (no)

Q. Item Cc1cc2c(C(C)C)c(O)c(O)c(C=O)c2c(O)c1-c1c(C)cc2c(C(C)C)c(O)c(O)c(C=O)c2c1O with relative cell count of 1 or above?
A. 1 (yes)

Q. Item COc1ccc(N(C(=O)CCl)C(C(=O)NCCc2ccccc2)c2cccs2)cc1Cl (configuration not stated) with relative cell count of 1 or above?
A. 0 (no)

Q. Item C[C@]12O[C@H](C[C@]1(O)CO)n1c3ccccc3c3c4c(c5c6ccccc6n2c5c31)CNC4=O with relative cell count of 1 or above?
A. 0 (no)

Q. Item Nc1nc(Cl)nc2c1ncn2[C@H]1C[C@H](O)[C@@H](CO)O1 with relative cell count of 1 or above?
A. 0 (no)

Q. Item C[C@@H]1C[C@@H]([C@H](O)CC2CC(=O)NC(=O)C2)C(=O)[C@@H](C)C1 with relative cell count of 1 or above?
A. 0 (no)

Q. Item CC[C@@H]1/C=C/C=C/C[C@H](C)[C@@H](O)[C@](C)(O)C(=O)[C@H](C)[C@@H](O)[C@H](C)C(=O)[C@H](C)[C@@H](O)[C@H](C)/C=C/C(=O)O[C@H]2[C@@H](C)[C@@H](CC1)O[C@@]1(CC[C@@H](C)[C@@H](C[C@H](C)O)O1)[C@@H]2C with relative cell count of 1 or above?
A. 0 (no)

Q. Item CCc1c2c(nc3ccc(O)cc13)-c1cc3c(c(=O)n1C2)COC(=O)[C@]3(O)CC with relative cell count of 1 or above?
A. 0 (no)

Q. Item COc1ccc(/C(Cl)=C(/C=O)c2ccc(OC)cc2)cc1 with relative cell count of 1 or above?
A. 0 (no)

Q. Item O=C(O[C@@H]1O[C@@H]2COC(=O)c3cc(O)c(O)c(O)c3-c3c(cc(O)c(O)c3O)C(=O)O[C@H]([C@H]1O)[C@@H]2O)c1cc(O)c(O)c(O)c1 with relative cell count of 1 or above?
A. 1 (yes)
